# METHOD DESCRIPTION: Pharmacokinetics study: exposure in inner ear, perilymph and tail plasma after single oral dose
# Format: in vivo, Wistar rats
# CONDITION SUMMARY: male, Wistar, rat, inner ear, oral; 10 mg/kg p.o. single dose, Time 480 (min); read-out: Average Inner ear concentration (ng azasetron free-base/g tissue)
ENDPOINT: concentration at 480 min (ng/g)
One number for each entry, in ng/g.

Would you kindly share the measured concentration at 480 min for CN1C(=O)COc2c(C(=O)NC3CN4CCC3CC4)cc(Cl)cc21 (racemic) [Racemic azasetron] ? 7

Look at this molecule and give its reported concentration at 480 min. CN1C(=O)COc2c(C(=O)N[C@@H]3CN4CCC3CC4)cc(Cl)cc21 [(−)-azasetron] 3

Turning now to a further record.
GET /values?readout=concentration at 480 min&item= CN1C(=O)COc2c(C(=O)N[C@H]3CN4CCC3CC4)cc(Cl)cc21 [(+)-azasetron] 6

###

Provide the recorded concentration at 60 min for the entries that follow.
# METHOD DESCRIPTION: Pharmacokinetics study: exposure in inner ear, perilymph and tail plasma after single oral dose
# Assay type: in vivo, Wistar rats
# CONDITION SUMMARY: male, Wistar, rat, inner ear, oral; 10 mg/kg p.o. single dose, Time 60 (min); read-out: Average Inner ear concentration (ng azasetron free-base/g tissue)
Give bare numbers, in ng/g.

# batch: return concentration at 60 min for each of the 3 compounds below
1. CN1C(=O)COc2c(C(=O)NC3CN4CCC3CC4)cc(Cl)cc21 (racemic) [Racemic azasetron]
2. CN1C(=O)COc2c(C(=O)N[C@H]3CN4CCC3CC4)cc(Cl)cc21 [(+)-azasetron]
3. CN1C(=O)COc2c(C(=O)N[C@@H]3CN4CCC3CC4)cc(Cl)cc21 [(−)-azasetron]

[63, 93, 8]

###

# METHOD DESCRIPTION: Pharmacokinetics study: exposure in inner ear, perilymph and tail plasma after single oral dose
# Format: in vivo, Wistar rats
# CONDITION SUMMARY: male, Wistar, rat, perilymph, po, 10 mg/kg, 10 mg/kg p.o., Time 30 (min); per-interval AUC of azasetron free-base; read-out: Perilymph AUC (converted)
Would you kindly list AUC for each of these compounds?
One number for each entry, in µM·h.

Some entries whose results are on file:
// query AUC value for entry CN1C(=O)COc2c(C(=O)N[C@@H]3CN4CCC3CC4)cc(Cl)cc21 [(−)-azasetron] 0.0102

What measured AUC goes with CN1C(=O)COc2c(C(=O)NC3CN4CCC3CC4)cc(Cl)cc21 (racemic) [Racemic azasetron] ? 0.0328

Next:
So what does the record say about AUC for CN1C(=O)COc2c(C(=O)N[C@H]3CN4CCC3CC4)cc(Cl)cc21 [(+)-azasetron] ? 0.0297

###

# METHOD DESCRIPTION: Pharmacokinetics study: exposure in inner ear, perilymph and tail plasma after single oral dose
# Type: in vivo, Wistar rats
# CONDITION SUMMARY: male, Wistar, rat, tail plasma, po, 10 mg/kg, 10 mg/kg p.o., Time 60 (min); per-interval AUC of azasetron free-base; read-out: Tail plasma AUC (converted)
Assign AUC to each entry below.

Worked examples, 2 compounds total:
Sample CN1C(=O)COc2c(C(=O)NC3CN4CCC3CC4)cc(Cl)cc21 (racemic) [Racemic azasetron] — what was its AUC? 0.309 µM·h

Need AUC of CN1C(=O)COc2c(C(=O)N[C@H]3CN4CCC3CC4)cc(Cl)cc21 [(+)-azasetron] , thanks. 0.35 µM·h

// next item, AUC requested
Requested read-out: AUC. Entry: CN1C(=O)COc2c(C(=O)N[C@@H]3CN4CCC3CC4)cc(Cl)cc21 [(−)-azasetron] 0.0515 µM·h

###

Exercise: for every item that follows, state its recorded AUC.
# METHOD DESCRIPTION: Pharmacokinetics study: exposure in inner ear, perilymph and tail plasma after single oral dose
# Assay type: in vivo, Wistar rats
# CONDITION SUMMARY: male, Wistar, rat, tail plasma, po, 10 mg/kg, 10 mg/kg p.o., Time 15 (min); per-interval AUC of azasetron free-base; read-out: Tail plasma AUC (converted)
One number for each entry, in µM·h.

Worked cases, answers included:
// query AUC value for entry CN1C(=O)COc2c(C(=O)N[C@H]3CN4CCC3CC4)cc(Cl)cc21 [(+)-azasetron] 0.0983

For CN1C(=O)COc2c(C(=O)NC3CN4CCC3CC4)cc(Cl)cc21 (racemic) [Racemic azasetron] , what is its reported AUC? 0.168

Now look at this one.
Name the recorded AUC for CN1C(=O)COc2c(C(=O)N[C@@H]3CN4CCC3CC4)cc(Cl)cc21 [(−)-azasetron] . 0.0203

###

# METHOD DESCRIPTION: Pharmacokinetics study: exposure in inner ear, perilymph and tail plasma after single oral dose
# Assay type: in vivo, Wistar rats
# CONDITION SUMMARY: male, Wistar, rat, inner ear, po, 10 mg/kg, 10 mg/kg p.o., Time 120 (min); per-interval AUC of azasetron free-base; read-out: Inner ear AUC (converted)
For each record, write down the corresponding AUC.
Give bare numbers, in µM·h.

Would you please look over these solved cases?
Query (molecule): CN1C(=O)COc2c(C(=O)N[C@H]3CN4CCC3CC4)cc(Cl)cc21 [(+)-azasetron] ; field requested: AUC 0.246

Query: AUC; subject: CN1C(=O)COc2c(C(=O)NC3CN4CCC3CC4)cc(Cl)cc21 (racemic) [Racemic azasetron] 0.14

Here's the next entry for you.
Would you mind telling me what AUC value was observed for CN1C(=O)COc2c(C(=O)N[C@@H]3CN4CCC3CC4)cc(Cl)cc21 [(−)-azasetron] ? 0.0772

###

I'd appreciate it if you could supply AUC values for the items below.
# METHOD DESCRIPTION: Pharmacokinetics study: exposure in inner ear, perilymph and tail plasma after single oral dose
# Format: in vivo, Wistar rats
# CONDITION SUMMARY: male, Wistar, rat, tail plasma, po, 10 mg/kg, 10 mg/kg p.o., Time 30 (min); per-interval AUC of azasetron free-base; read-out: Tail plasma AUC (converted)
One number for each entry, in µM·h.

Reference set, count: 2
Need AUC of CN1C(=O)COc2c(C(=O)N[C@@H]3CN4CCC3CC4)cc(Cl)cc21 [(−)-azasetron] , thanks. 0.034

What AUC value was documented for this compound, CN1C(=O)COc2c(C(=O)NC3CN4CCC3CC4)cc(Cl)cc21 (racemic) [Racemic azasetron] ? 0.263

Continue with the next compound.
Fill blank: measured AUC of the compound CN1C(=O)COc2c(C(=O)N[C@H]3CN4CCC3CC4)cc(Cl)cc21 [(+)-azasetron] is ____. 0.192

###

# METHOD DESCRIPTION: Pharmacokinetics study: exposure in inner ear, perilymph and tail plasma after single oral dose
# Format: in vivo, Wistar rats
# CONDITION SUMMARY: male, Wistar, rat, inner ear, oral; 10 mg/kg p.o. single dose, Time 15 (min); read-out: Average Inner ear concentration (ng azasetron free-base/g tissue)
ENDPOINT: concentration at 15 min (ng/g)
Give bare numbers, in ng/g.

Some compounds with recorded concentration at 15 min:
What concentration at 15 min value was documented for this compound, CN1C(=O)COc2c(C(=O)NC3CN4CCC3CC4)cc(Cl)cc21 (racemic) [Racemic azasetron] ? 25

For CN1C(=O)COc2c(C(=O)N[C@H]3CN4CCC3CC4)cc(Cl)cc21 [(+)-azasetron] , what is its reported concentration at 15 min? 57

Next:
Name the reported concentration at 15 min value associated with the compound CN1C(=O)COc2c(C(=O)N[C@@H]3CN4CCC3CC4)cc(Cl)cc21 [(−)-azasetron] 29

###

# METHOD DESCRIPTION: Pharmacokinetics study: exposure in inner ear, perilymph and tail plasma after single oral dose
# Assay type: in vivo, Wistar rats
# CONDITION SUMMARY: male, Wistar, rat, tail plasma, po, 10 mg/kg, 10 mg/kg p.o., Time 120 (min); per-interval AUC of azasetron free-base; read-out: Tail plasma AUC (converted)
# Description: The 72 male Wistar rats received on 28 Jan. 2016 from Janvier (Janvier, Le Genest-St-Isle) were assigned to the study. They were divided in 3 groups of 24 animals each, one group per test article. Each group was divided in […] subgroups according to the 6-termination time-points. […]
Please go through the items and note down their AUC.
Field note: include the unit after the figure.

// solved cases for AUC follow
Looking for the measured AUC of CN1C(=O)COc2c(C(=O)N[C@H]3CN4CCC3CC4)cc(Cl)cc21 [(+)-azasetron] , can you help? 0.622 µM·h

# AUC lookup, item CN1C(=O)COc2c(C(=O)NC3CN4CCC3CC4)cc(Cl)cc21 (racemic) [Racemic azasetron] 0.374 µM·h

Could you now consider this next compound?
Fill blank: measured AUC of the compound CN1C(=O)COc2c(C(=O)N[C@@H]3CN4CCC3CC4)cc(Cl)cc21 [(−)-azasetron] is ____. 0.17 µM·h
